- TARGET_UNDER_TEST: rat ASIC3 (Rattus norvegicus)
- Construct: expressed in transfected cells; host or cells: Xenopus laevis oocytes (cRNA injection)
- Sequence (O35240 whole entry): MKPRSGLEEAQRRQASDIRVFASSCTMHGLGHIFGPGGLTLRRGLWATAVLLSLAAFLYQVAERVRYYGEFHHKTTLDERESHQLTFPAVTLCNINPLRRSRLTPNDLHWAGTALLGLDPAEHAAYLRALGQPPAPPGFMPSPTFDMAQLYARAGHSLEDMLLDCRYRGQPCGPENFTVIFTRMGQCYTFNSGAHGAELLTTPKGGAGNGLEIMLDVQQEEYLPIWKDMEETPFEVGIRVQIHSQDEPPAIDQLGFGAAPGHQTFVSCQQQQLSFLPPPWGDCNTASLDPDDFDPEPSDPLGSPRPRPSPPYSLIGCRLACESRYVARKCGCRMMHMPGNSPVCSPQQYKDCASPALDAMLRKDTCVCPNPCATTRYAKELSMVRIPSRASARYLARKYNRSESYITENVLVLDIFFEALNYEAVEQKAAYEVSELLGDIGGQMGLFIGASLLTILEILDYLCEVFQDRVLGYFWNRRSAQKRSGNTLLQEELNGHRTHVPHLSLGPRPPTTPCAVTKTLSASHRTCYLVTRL
- METHOD: Inhibition of homomeric rat ASIC3 currents in Xenopus oocytes (two-electrode voltage clamp)
- Format: cell-based
- RECORDED_CONDITIONS: rat ASIC3 in Xenopus laevis oocytes; pH drop from 7.4 to 6.0 every minute; -60 mV; RT (18–21 °C); ND96 with 0.1% BSA; pH 6 stimulus buffered with MES
Positions of bridges follow the written chain, without caps; N, C: chain ends. No end group written: not given here.

ITEM_SEQUENCE | IC50
GTACSCGNSKGIYWFYRPSCPTDRGYTGSCRYFLGTCCTPAD (disulfide 4-37, 6-30, 20-38) [rAPETx2] | 80 nM
